These data points were gathered from patent US20210324028A1.

# assayed system: T1, human IL-15Rα (human, UniProt Q13261 31-205, limits assumed)
# T1 construct: also called hIL-15Rα; IL-15 receptor alpha
# T1 sequence (Q13261 31-205 limits assumed): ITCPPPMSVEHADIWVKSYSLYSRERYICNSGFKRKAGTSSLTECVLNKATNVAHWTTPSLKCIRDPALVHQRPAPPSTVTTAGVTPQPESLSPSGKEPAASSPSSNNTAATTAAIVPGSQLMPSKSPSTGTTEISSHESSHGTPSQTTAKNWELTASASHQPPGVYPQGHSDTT
# experiment summary: SPR, steady state
observation type: pKd
Field pKd (float): negative decimal logarithm of the concentration in molar.

Here is how some binders turned out for pKd.
- binder: "hIL-15 V49R/I68Y (ligand) NWVNVISDLKKIEDLIQSMHIDATLYTESDVHPSCKVTAMKCFLLELQRISLESGDASIHDTVENLIYLANNSLSSNGNVTESGCKECEELEEKNIKEFLQSFVHIVQMFINTGGGGSGHHHHHHHHGGGLNDIFEAQKIEWHE"
  pKd: 7.03
- binder: "hIL-15 V49R/K11S (ligand) NWVNVISDLKSIEDLIQSMHIDATLYTESDVHPSCKVTAMKCFLLELQRISLESGDASIHDTVENLIILANNSLSSNGNVTESGCKECEELEEKNIKEFLQSFVHIVQMFINTGGGGSGHHHHHHHHGGGLNDIFEAQKIEWHE"
  pKd: 6.71

Can you share its pKd? I mean this binder: hIL-15 V49R/K10M (ligand) NWVNVISDLMKIEDLIQSMHIDATLYTESDVHPSCKVTAMKCFLLELQRISLESGDASIHDTVENLIILANNSLSSNGNVTESGCKECEELEEKNIKEFLQSFVHIVQMFINTGGGGSGHHHHHHHHGGGLNDIFEAQKIEWHE 6.91
